Reference for the values: PubChem BioAssay (NCI)

- Tested on: CAKI-1 renal
- protocolDetails: NCI tumour cell line growth inhibition, 48 h
readoutName: GI50

# compound, GI50
measured = [
    ("O=C(N[C@@H](C[Se][Se]C[C@H](NC(=O)c1ccc(Br)cc1F)C(=O)O)C(=O)O)c1ccc(Br)cc1F", "> 100 µM"),
    ("N#Cc1ccc(NC(=O)C(CC(=O)OCc2ccccc2)NC(=O)OCc2ccccc2)cc1 (stereo not given)", "> 100 µM"),
    ("O=C(Nc1ccc(Cl)c(Cl)c1)NS(=O)(=O)c1cnccc1Oc1ccc(F)cc1", "2.5 µM"),
]

Measured GI50 of "COc1ccc(OC)c(Cn2cc3c(c2-c2ccccc2)CCc2cnoc2-3)c1" : 4.35 µM

For reference, reported GI50 for "CN(C)c1ccc(-c2ccc(-c3ccc(C(=N)N)cc3)s2)cc1" stands at 1.79 µM
